- System: bovine βH crystallin
- Assay name: Protein pin array interaction with βH crystallin
- Type: binding
- Experimental context: unheated βH crystallin; similar maxima with βH crystallin pre-heated at 45° C. for fifteen minutes
- Method: Synthesis of Pins, binding and detection of peptides binding to ligand proteins. […] Refer to the methods section for detailed protocols. The absorbance corresponding to the blue coloration in each well was measured at λ=450 nm and plotted against the amino acid sequence of the corresponding peptide in that well (FIGS. 13 and 14). […] Ghosh and Clark, Protein Sci 14: 684-95, 2005. […] The intensity of the blue color in the wells was measured at 450 nm using an ELISA plate-reader (BioTek, Winooski, Vt.). […]
Measurement type: absorbance at λ=450 nm, interaction with βH crystallin

# Sequence, Obs value
data = [
    ("RLEKDRFS [Peptide 35]", "Maximum absorbances"),
    ("PPSFLRAP [Peptide 26]", "Maximum absorbances"),
    ("FISREFHR [Peptide 57]", "Maximum absorbances"),
    ("FYLRPPSF [Peptide 24]", "Maximum absorbances"),
    ("KYRIPADV [Peptide 61]", "Maximum absorbances"),
    ("SPFYLRPP [Peptide 23]", "Maximum absorbances"),
    ("RTIPITRE [Peptide 79]", "Maximum absorbances"),
    ("LKVKVLGD [Peptide 45]", "Maximum absorbances"),
    ("LTITSSLS [Peptide 66]", "Maximum absorbances"),
    ("WIRRPFFP [Peptide 5]", "Maximum absorbances"),
    ("GVLTVNGP [Peptide 71]", "Maximum absorbances"),
    ("FSVNLDVK [Peptide 38]", "Maximum absorbances"),
]
